Data origin, for the record: patent US20250115558A1

I'd appreciate it if you could supply pIC50 values for the items below.
Test system: IL-1β release upon NLRP3 activation in peripheral blood mononuclear cells (PBMC)
run description: PBMC IC50 Determination Assay
Type: cell-based
condition description: Homo sapiens; inhibition of IL-1β release; LPS-primed PBMC stimulated with ATP or nigericin
pIC50: −log10 of the molar value. Structures can show the parent of a compound that is named as a salt.

Enter measured pIC50, system IL-1β release upon NLRP3 activation in peripheral blood mononuclear cells (PBMC), for the compound shown: Cc1cc(C(F)(F)F)cc(O)c1-c1ccc(CNCC(F)(F)F)nn1 [Compound 95]
> 6.30

State pIC50 (IL-1β release upon NLRP3 activation in peripheral blood mononuclear cells (PBMC)) of Cc1cc(C(F)(F)F)cc(O)c1-c1ccc(CN2CCCCC2)nn1 [Compound 135] .
> 6.30

State pIC50 on IL-1β release upon NLRP3 activation in peripheral blood mononuclear cells (PBMC). Entry: Cc1cc(C(F)(F)F)cc(O)c1-c1ccc(CNCC2CCCN2C)nn1 (stereo not shown) [Compound 76, dihydrochloride]
5.52 to 6.00

State recorded pIC50 with IL-1β release upon NLRP3 activation in peripheral blood mononuclear cells (PBMC), entry Cc1cc(C(F)(F)F)cc(O)c1-c1ccc(CNC2CCCN(C)C2)nn1 (stereo not shown) [Compound 22] , no comment.
5.52 to 6.00

====

Tested on: IL-1β release upon NLRP3 activation in peripheral blood mononuclear cells (PBMC)
run description: PBMC IC50 Determination Assay
Assay type: cell-based
condition description: Homo sapiens; inhibition of IL-1β release; LPS-primed PBMC stimulated with ATP or nigericin
parameter measured: IC50

Specify reported IC50 for the compound shown: Cc1cc(C(F)(F)F)cc(O)c1-c1ccc(Cn2ccn(C)c2=N)nn1
1000 to 3000 nM

For the compound Cc1cc(C(F)(F)F)cc(O)c1-c1ccc(COC2CCCNC2)nn1 (stereo not shown) , give its reported IC50.
500 to 1000 nM

Look up and state reported IC50 for Cc1cc(C(F)(F)F)cc(O)c1-c1ccc(CNCCC(C)(C)O)nn1
1000 to 3000 nM

Specify IC50 for Cc1cc(C(F)(F)F)cc(O)c1-c1ccc(CN[C@H]2CC[C@@](C)(O)CC2)nn1 and stop.
1000 to 3000 nM

====

What pIC50 was measured for each of the following?
Tested on: IL-1β release upon NLRP3 activation in peripheral blood mononuclear cells (PBMC)
run description: PBMC IC50 Determination Assay
Assay type: cell-based
condition description: Homo sapiens; inhibition of IL-1β release; LPS-primed PBMC stimulated with ATP or nigericin
pIC50: −log10 of the molar value. Structures can show the parent of a compound that is named as a salt.

// fetch pIC50 given entry Cc1cc(C(F)(F)F)cc(O)c1-c1ccc(CN2CCOCC2)nn1
6.00 to 6.30

Look up and report measured pIC50 for this entry: Cc1cc(Cl)cc(O)c1-c1ccc(CN[C@@H]2CCC(=O)N(C)C2)nn1
6.00 to 6.30

# return recorded pIC50 for entry Cc1cc(C(F)(F)F)cc(O)c1-c1ccc(CNC2CCN(C)C2)nn1 (stereo not shown) [Compound 71, dihydrochloride]
6.00 to 6.30

For the molecule Cc1cc(C(F)(F)F)cc(O)c1-c1ccc(CNC(=O)C2CCOCC2)nn1 , give its reported pIC50.
5.00 to 5.52

Please give the documented pIC50 of Cc1cc(C(F)(F)F)cc(O)c1-c1ccc(C(C)N2CCCC2=O)nn1 (stereo not shown)
> 6.30

Return pIC50 for the following molecule: Cc1cc(C(F)(F)F)cc(O)c1-c1ccc(CNCC2CCCOC2)nn1 (stereo not shown)
5.00 to 5.52

Report pIC50, nothing else, for this molecule: CC(=O)N1CCC(NCc2ccc(-c3c(C)cc(C(F)(F)F)cc3O)nn2)C1 (stereo not shown)
> 6.30
